The measured values listed here are drawn from paper PMC3729231.

systemTested: APJ (Homo sapiens)
Sequence (P35414 1-380): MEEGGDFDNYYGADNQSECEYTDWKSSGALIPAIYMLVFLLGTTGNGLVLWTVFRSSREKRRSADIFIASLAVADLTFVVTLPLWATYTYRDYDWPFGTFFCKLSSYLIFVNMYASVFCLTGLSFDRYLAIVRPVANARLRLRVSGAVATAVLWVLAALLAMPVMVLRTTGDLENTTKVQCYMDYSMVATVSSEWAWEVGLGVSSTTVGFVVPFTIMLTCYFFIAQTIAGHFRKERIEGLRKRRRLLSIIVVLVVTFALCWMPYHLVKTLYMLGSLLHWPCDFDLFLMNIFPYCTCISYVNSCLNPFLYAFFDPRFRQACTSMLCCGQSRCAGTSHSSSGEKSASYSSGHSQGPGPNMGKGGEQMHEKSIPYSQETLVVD
endpoint: IC50 (µM)

1. Cc1ccnc(SCc2cc(=O)c(NC(=O)c3ccc([N+](=O)[O-])cc3)co2)n1 = 12.8
